system: NCI-H226 lung; experiment: NCI tumour cell line growth inhibition, 48 h

- Compound: "CCSC1=N/C(=C\\c2ccco2)C(NN)=N1"
  TGI: "> 50 µM"
- Compound: "C=CC(=O)N1C/C(=C\\c2ccccc2)C(=O)/C(=C/c2ccccc2)C1"
  TGI: "10.6 µM"
- Compound: "CCOC(=O)/C(C=Nc1c(C)n(C)n(-c2ccccc2)c1=O)=C(/O)c1ccccc1"
  TGI: "> 100 µM"
- Compound: "Cc1nc2ccccn2c1NC(=O)NNC(=S)Nc1ccc(Br)cc1"
  TGI: "> 100 µM"
- Compound: "C=CCCCn1ccc2ccccc21"
  TGI: "> 100 µM"
- Compound: "O=c1[nH]c(=O)n(C2OC(CO)C(O)C2O)c2ncc(-c3ccc(-c4ccccc4)cc3)nc12 (stereo unspecified)"
  TGI: "> 20 µM"
- Compound: "Cc1ccc(S(=O)(=O)Oc2ccc([N+](=O)[O-])cc2[N+](=O)[O-])cc1"
  TGI: "43.6 µM"
- Compound: "COc1ccc(/C=N/n2c(=O)[nH]c3ccccc3c2=O)cc1"
  TGI: "> 100 µM"
- Compound: "C=CCOc1ccc(/C(N=Nc2ccc(C)cc2)=N/NC(=O)c2ccccc2)cc1OC"
  TGI: "58.4 µM"
- Compound: "O=C(Cc1nc2ccccc2s1)Nc1ccc(Cl)cc1"
  TGI: "> 100 µM"
- Compound: "O=C1c2sc(-c3ccc(F)cc3)cc2-n2cccc21"
  TGI: "82.2 µM"
